# Tgt: human MDR1 (multidrug resistance protein 1) (human, UniProt P08183 1-1280)
# Protocol description: cell-based or functional assay
Threshold-based label: IC50 of vincristine on N6/ADR cells with antibody under 20 pM gives true (1), IC50 of vincristine on N6/ADR cells with antibody not under 20 pM gives false (0).

Binder	Label class
B1.198 (antibody, human IgG1, V domains shown) VH: EVQLVESGGALVKPGGSLKLSCAASGFTFSNYAMSWVRQTPEKRLEWVATISSGGSYTYYPDSVKGRFTISRDNAKNTLYLQMSSLRSEDTALYYCAKYSNYGRFAYWGQGTLVTVSA VL: DVVMTQTPLSLPVSLGDQASISCRSSQSIVDSNGNTYLEWYLQKPGQSPKLLIYKVSNRFFGVPDRFSGSGSGTDFTLKISRVEAEDLGVYYCFQGSHVPYTFGGGTKLEIK	true (1)
KB1.273A (antibody, human IgG1, V domains shown) VH: QVQLQQSGPELVKTGASVKISCKASGYSFSNYYIHWVKQSHGKSLEWIGFISCYNGATFYNQKFKGKATFTVDTSSSTAYMKFNSLTFEDSAVYYCARLPIQFGNFYPMDYWGQGTSVTVSS VL: QIVLTQSPAIMSASLGERVTMTCTASSSVSSSYLHWYQQKPGSSPKLWIYSTSNLASGVPARFSGSGSGTSYSLTISSMEAEDAATYYCHQYHRSPPTFGAGTKLELK	false (0)
B1.207 (antibody, human IgG1, V domains shown) VH: GVQLVESGGALVKPGGSLKLSCAASGFTFSNYAMSWVRQTPEKRLEWVATISSGGSYTYYPDSVKGRFTISRDNAKTTLYLQMSGLRSEDTALYYCAKYSNYGRFASWGQGTLVTVST VL: DVLMTQTPLSLPVSLGDQASISCRSSQSIVHSSGNTYLEWYLQKPGQSPRLLIYKVSNRFFGVPDRISGSGSGTDFTLRISRVEAEDLGVYYCFQGSHVPYTFGGGTKLEIK	true (1)
B1.188 (antibody, human IgG1, V domains shown) VH: EVMLVESGGALVKPGGSLKLSCAASGFTFSNYAMSWVRQTPEKRLEWVATISSGGSYTYYPDSVKGRFTISRDNARNTLYLQMSSLRSEDTAMYYCARGYGNFAWFAYWGQGTLVTVSA VL: DIQMTQSPLSLPVSLGDQASISCRSSQSIVHSTGNTYLEWYLQKPGQSPKLLIYKVSNRFSGVPDRFSGSGSGTDFTLKISRVEAEDLGVYYCFQGSHVPFTFGSGTKLEIK	false (0)

Continue with the binder presented below.
Request: # check: IC50 of vincristine on N6/ADR cells with antibody < 20 pM for B1.276 (antibody, human IgG1, V domains shown) VH: EVKLVESGGALVKPGGSLKLSCAASGFTFRNYAMSWVRQTPEKRLEWVATISSDGSYTYHPDSVKGRFTISRDNARNTLYLQMSSLRSEDTAMYSCTRQGNWGRTWFTYWGQGTLVTVSS VL: QIVLTQSPAIMSASPGEKVTMTCRASSSVSSSYLHWYQQKSGASPKLWIYSTSSLASGVPARFSGSGSGTSYSLTISSVEAEDAATYYCQQYSGYPLTFGAGTKLELK
Response: false (0)
